Assay: The compound was tested for half life in aqueous media in 0.05 M NaOH, at 12.6
Format: ADME
Settings: aqueous 0.05 M NaOH, pH 12.6
PROPERTY LABEL: half-life (min)

>  <ENTRY SMILES>
CC(C)(C)C(=O)OCOP(=O)(OCOC(=O)C(C)(C)C)OC[C@H]1O[C@@H](n2cc(F)c(=O)[nH]c2=O)C[C@@H]1O

>  <PROPERTY LABEL>
half-life

>  <MEASUREMENT UNITS>
min

>  <RECORDED RESULT>
1.8

$$$$

###

Experiment: The compound was tested for half life in aqueous media in 0.20 M HCl/KCl solution, at pH 1.0
Format: ADME

>  <ENTRY SMILES>
CC(C)(C)C(=O)OCOP(=O)(OCOC(=O)C(C)(C)C)OC[C@H]1O[C@@H](n2cc(F)c(=O)[nH]c2=O)C[C@@H]1O

>  <MEASUREMENT UNITS>
h

>  <half-life>
142

$$$$

###

Assay: The compound was tested for half life in aqueous media in 0.05 M Tris-HCl buffer, at pH 9.0
Type: ADME

>  <ENTRY SMILES>
CC(C)(C)C(=O)OCOP(=O)(OCOC(=O)C(C)(C)C)OC[C@H]1O[C@@H](n2cc(F)c(=O)[nH]c2=O)C[C@@H]1O

>  <half-life [h]>
21.6

$$$$

###

Assay: The compound was tested for half life in aqueous media in 0.05 M potassium phosphate buffer, at pH 7.4
Type: ADME

>  <ENTRY SMILES>
CC(C)(C)C(=O)OCOP(=O)(OCOC(=O)C(C)(C)C)OC[C@H]1O[C@@H](n2cc(F)c(=O)[nH]c2=O)C[C@@H]1O

>  <half-life, h>
40.2

$$$$

Reference source for all entries: ChEMBL document CHEMBL1127405
